settings: human gut metagenome, 24 h, 2 µM; further: call rule not given here
experimental.readout: Bacterial Biotransformation

# compound, recorded.value
rows = [
    ("O=c1n(CCCN2CCN(c3cccc(Cl)c3)CC2)nc2ccccn12", "Compound metabolized"),
    ("NC12CC3CC(CC(C3)C1)C2", "Compound NOT metabolized"),
    ("CNC(=C[N+](=O)[O-])NCCSCc1ccc(CN(C)C)o1", "Compound NOT metabolized"),
    ("CC(C)(C)NC[C@H](O)COc1ccccc1C1CCCC1.CC(C)(C)NC[C@H](O)COc1ccccc1C1CCCC1.O=S(=O)(O)O [PENBUTOLOL SULFATE]", "Compound metabolized"),
    ("C#C[C@]1(O)CC[C@H]2[C@@H]3CCC4=CC(=O)CC[C@@H]4[C@H]3CC[C@@]21CC", "Compound metabolized"),
    ("CC[C@H](C)C(=O)O[C@H]1C[C@@H](C)C=C2C=C[C@H](C)[C@H](CC[C@@H]3C[C@@H](O)CC(=O)O3)[C@H]21", "Compound NOT metabolized"),
    ("O=P(O)(O)O.c1ccc(CN(CC2=NCCN2)c2ccccc2)cc1 [ANTAZOLINE PHOSPHATE]", "Compound metabolized"),
    ("COc1cc2nc(N3CCN(C(=O)c4ccco4)CC3)nc(N)c2cc1OC", "Compound metabolized"),
]

* * *

conditions: human gut metagenome, 24 h, 2 µM
experimental.readout: Bacterial Biotransformation

# molecule, recorded.value
data = [
    ("CC[C@H](C)C(=O)O[C@H]1C[C@@H](C)C=C2C=C[C@H](C)[C@H](CC[C@@H]3C[C@@H](O)CC(=O)O3)[C@H]21 [LOVASTATIN]", "Compound NOT metabolized"),
    ("Cc1nc(-c2ccc(OCC(C)C)c(C#N)c2)sc1C(=O)O [FEBUXOSTAT]", "Compound metabolized"),
    ("CN1CCC(=C2c3ccccc3CCc3cccnc32)CC1.O=C(O)/C=C\\C(=O)O.O=C(O)/C=C\\C(=O)O [AZATADINE MALEATE]", "Compound NOT metabolized"),
    ("COc1ccc2[nH]c([S+]([O-])Cc3ncc(C)c(OC)c3C)nc2c1 (stereo not drawn) [OMEPRAZOLE]", "Compound metabolized"),
    ("CN(C)CCc1c[nH]c2ccc(Cn3cncn3)cc12.O=C(O)c1ccccc1 [RIZATRIPTAN BENZOATE]", "Compound NOT metabolized"),
    ("NS(=O)(=O)c1cc2c(cc1Cl)N=C(CSCc1ccccc1)NS2(=O)=O [BENZTHIAZIDE]", "Compound NOT metabolized"),
    ("COc1cc2c(c(OC)c1OC)-c1ccc(OC)c(=O)cc1[C@@H](NC(C)=O)CC2 [COLCHICINE]", "Compound NOT metabolized"),
    ("O=C(NCc1ccccc1)OCCO [BURAMATE]", "Compound NOT metabolized"),
    ("COCCc1ccc(OCC(O)CNC(C)C)cc1.COCCc1ccc(OCC(O)CNC(C)C)cc1.O=C(O)C(O)C(O)C(=O)O (stereo not drawn) [METOPROLOL TARTRATE]", "Compound metabolized"),
    ("OC(CCN1CCCCC1)(c1ccccc1)C1CCCCC1 (stereo not drawn) [TRIHEXYPHENIDYL]", "Compound metabolized"),
    ("CC(C)N(CCC(C(N)=O)(c1ccccc1)c1ccccn1)C(C)C.O=P(O)(O)O (stereo not drawn) [DISOPYRAMIDE PHOSPHATE]", "Compound NOT metabolized"),
    ("CN1CCN(C2=Nc3cc(Cl)ccc3Nc3ccccc32)CC1 [CLOZAPINE]", "Compound NOT metabolized"),
    ("CN(C(=O)CN(CCO)CC(=O)N(C)C(C)(C)Cc1ccccc1)C(C)(C)Cc1ccccc1 [OXETHAZAINE]", "Compound metabolized"),
    ("CC(C)(Oc1ccc(CCNC(=O)c2ccc(Cl)cc2)cc1)C(=O)O [BEZAFIBRATE]", "Compound metabolized"),
    ("CCOC(=O)[C@H](CCc1ccccc1)N[C@H]1CCc2ccccc2N(CC(=O)O)C1=O [BENAZEPRIL]", "Compound metabolized"),
    ("c1ccc([C@H]2CN3CCSC3=N2)cc1 [LEVAMISOLE]", "Compound metabolized"),
    ("COc1ccccc1OCC(O)COC(N)=O (stereo not drawn) [METHOCARBAMOL]", "Compound NOT metabolized"),
    ("CCC1(c2ccc(N)cc2)CCC(=O)NC1=O (stereo not drawn) [AMINOGLUTETHIMIDE]", "Compound NOT metabolized"),
]

* * *

conditions: human gut metagenome, 24 h, 2 µM
experimental.readout: Bacterial Biotransformation

# compound, experimental.readout, recorded.value
records = [
    ("O=C1NCC2(CCN(CCc3ccccc3)CC2)O1 [FENSPIRIDE]", "Bacterial Biotransformation", "Compound NOT metabolized"),
    ("CCOC(=O)[C@H](CCc1ccccc1)N[C@@H](C)C(=O)N1[C@H](C(=O)O)C[C@@H]2CCC[C@@H]21", "Bacterial Biotransformation", "Compound metabolized"),
    ("COc1ccc(CCN(C)CCCC(C#N)(c2ccc(OC)c(OC)c2)C(C)C)cc1OC (stereo not drawn)", "Bacterial Biotransformation", "Compound metabolized"),
    ("O=C1[C@H](CC[C@H](O)c2ccc(F)cc2)[C@@H](c2ccc(O)cc2)N1c1ccc(F)cc1", "Bacterial Biotransformation", "Compound metabolized"),
    ("CN1CCc2cccc3c2[C@H]1Cc1ccc(O)c(O)c1-3", "Bacterial Biotransformation", "Compound NOT metabolized"),
    ("CN1C(=O)CCS(=O)(=O)C1c1ccc(Cl)cc1 (stereo not drawn)", "Bacterial Biotransformation", "Compound metabolized"),
    ("Cc1ccc(-c2nc3ccc(C)cn3c2CC(=O)N(C)C)cc1", "Bacterial Biotransformation", "Compound metabolized"),
    ("CCCc1nc(C(C)(C)O)c(C(=O)OCc2oc(=O)oc2C)n1Cc1ccc(-c2ccccc2-c2nnn[nH]2)cc1", "Bacterial Biotransformation", "Compound metabolized"),
    ("CC(=O)OCC(=O)[C@@]1(O)[C@@H](C)C[C@H]2[C@@H]3CCC4=CC(=O)C=C[C@]4(C)[C@@]3(F)[C@@H](O)C[C@@]21C [BETAMETHASONE ACETATE]", "Bacterial Biotransformation", "Compound metabolized"),
    ("CN1CCC(=C2c3ccccc3CCc3cccnc32)CC1.O=C(O)/C=C\\C(=O)O.O=C(O)/C=C\\C(=O)O [AZATADINE MALEATE]", "Bacterial Biotransformation", "Compound NOT metabolized"),
    ("Cc1ccccc1N1C(=O)c2cc(S(N)(=O)=O)c(Cl)cc2NC1C (stereo not drawn)", "Bacterial Biotransformation", "Compound metabolized"),
    ("CCCc1nn(C)c2c(=O)[nH]c(-c3cc(S(=O)(=O)N4CCN(C)CC4)ccc3OCC)nc12.O=C(O)CC(O)(CC(=O)O)C(=O)O [SILDENAFIL CITRATE]", "Bacterial Biotransformation", "Compound metabolized"),
    ("CC(O)(CS(=O)(=O)c1ccc(F)cc1)C(=O)Nc1ccc(C#N)c(C(F)(F)F)c1 (stereo not drawn) [BICALUTAMIDE]", "Bacterial Biotransformation", "Compound NOT metabolized"),
    ("CN1C(=O)CC(C)(c2ccccc2)C1=O (stereo not drawn) [METHSUXIMIDE]", "Bacterial Biotransformation", "Compound metabolized"),
    ("CCC(COC(=O)c1cc(OC)c(OC)c(OC)c1)(c1ccccc1)N(C)C.O=C(O)/C=C\\C(=O)O (stereo not drawn)", "Bacterial Biotransformation", "Compound metabolized"),
    ("Cc1ccc(S(=O)(=O)NC(=O)NN2CC3CCCC3C2)cc1 (stereo not drawn) [GLICLAZIDE]", "Bacterial Biotransformation", "Compound metabolized"),
    ("CN1C(C(=O)Nc2ccccn2)=C(O)c2sccc2S1(=O)=O", "Bacterial Biotransformation", "Compound NOT metabolized"),
    ("CCN(CC)CCOC(=O)C(Cc1cccc2ccccc12)CC1CCCO1.O=C(O)C(=O)O (stereo not drawn) [NAFRONYL OXALATE]", "Bacterial Biotransformation", "Compound metabolized"),
    ("CN/C(=N/CCSCc1nc[nH]c1C)NC#N", "Bacterial Biotransformation", "Compound metabolized"),
    ("Br.CN(C)CCCC1(c2ccc(F)cc2)OCc2cc(C#N)ccc21 (stereo not drawn) [CITALOPRAM HYDROBROMIDE]", "Bacterial Biotransformation", "Compound metabolized"),
    ("O=c1[nH]c2ccccc2n1C1CCN(CCCC(c2ccc(F)cc2)c2ccc(F)cc2)CC1 [PIMOZIDE]", "Bacterial Biotransformation", "Compound metabolized"),
    ("O=C(Nc1ccccc1)OCC(CN1CCCCC1)OC(=O)Nc1ccccc1 (stereo not drawn)", "Bacterial Biotransformation", "Compound metabolized"),
    ("CCN(CC)CCNC(=O)c1cc(Cl)c(N)cc1OC [METOCLOPRAMIDE]", "Bacterial Biotransformation", "Compound NOT metabolized"),
    ("CC(=O)CC(c1ccccc1)c1c(O)c2ccccc2oc1=O (stereo not drawn)", "Bacterial Biotransformation", "Compound metabolized"),
    ("CCCC1O[C@@H]2C[C@H]3[C@@H]4CCC5=CC(=O)C=C[C@]5(C)[C@H]4[C@@H](O)C[C@]3(C)[C@]2(C(=O)CO)O1 (stereo partly drawn) [BUDESONIDE]", "Bacterial Biotransformation", "Compound metabolized"),
    ("COc1ccc2c(c1OC)C(=O)O[C@@H]2[C@H]1c2c(cc3c(c2OC)OCO3)CCN1C", "Bacterial Biotransformation", "Compound metabolized"),
    ("CC(C)N(CCC(C(N)=O)(c1ccccc1)c1ccccn1)C(C)C.O=P(O)(O)O (stereo not drawn) [DISOPYRAMIDE PHOSPHATE]", "Bacterial Biotransformation", "Compound metabolized"),
    ("CN(C(=O)CN(CCO)CC(=O)N(C)C(C)(C)Cc1ccccc1)C(C)(C)Cc1ccccc1", "Bacterial Biotransformation", "Compound metabolized"),
    ("CN1CCN(C(=O)O[C@H]2c3nccnc3C(=O)N2c2ccc(Cl)cn2)CC1", "Bacterial Biotransformation", "Compound NOT metabolized"),
    ("CC(C)(Oc1ccc(CCNC(=O)c2ccc(Cl)cc2)cc1)C(=O)O [BEZAFIBRATE]", "Bacterial Biotransformation", "Compound metabolized"),
    ("NS(=O)(=O)c1cc2c(cc1Cl)N=C(CSCc1ccccc1)NS2(=O)=O [BENZTHIAZIDE]", "Bacterial Biotransformation", "Compound metabolized"),
    ("CC(CN1c2ccccc2Sc2ccccc21)N(C)C (stereo not drawn)", "Bacterial Biotransformation", "Compound metabolized"),
    ("CC(C)NCC(O)COc1ccc(COCCOC(C)C)cc1.CC(C)NCC(O)COc1ccc(COCCOC(C)C)cc1.O=C(O)/C=C/C(=O)O (stereo not drawn) [BISOPROLOL FUMARATE]", "Bacterial Biotransformation", "Compound metabolized"),
]
